// provenance: ChEMBL document CHEMBL4665864

Experiment: Inhibition of Saccharomyces cerevisiae alpha-glucosidase using p-nitrophenyl-alpha-D-glucopyranoside as substrate preincubated with enzyme for 5 mins followed by substrate addition and measured after 30 mins by microplate reader analysis
Settings: read-out: IC50
pIC50: −log10 of the molar value.
Metric name: pIC50

N#C/C(=C\c1ccc2ccc3cccc4ccc1c2c34)C(=O)c1c[nH]c2ccccc12    5.87
N#C/C(=C\c1ccccc1OCc1ccccc1)C(=O)c1c[nH]c2ccccc12    5.92
COc1cccc(/C=C(\C#N)C(=O)c2c[nH]c3ccccc23)c1Cl    6.02
N#C/C(=C\c1cccc2ccccc12)C(=O)c1c[nH]c2ccccc12    6.22
COc1ccc(/C=C(\C#N)C(=O)c2c[nH]c3ccccc23)cc1OCc1ccccc1    5.99
N#C/C(=C\c1ccc([N+](=O)[O-])cc1)C(=O)c1c[nH]c2ccccc12    6.06
COc1cc(/C=C(\C#N)C(=O)c2c[nH]c3ccccc23)cc(OC)c1Br    6.28
C[C@H]1O[C@H](O[C@H]2[C@H](O)[C@@H](O)[C@@H](O[C@H]3[C@H](O)[C@@H](O)C(O)O[C@@H]3CO)O[C@@H]2CO)[C@H](O)[C@@H](O)[C@@H]1N[C@H]1C=C(CO)[C@@H](O)[C@H](O)[C@H]1O (stereo partly drawn)    5.54

====

Assay: Inhibition of Saccharomyces cerevisiae alpha-glucosidase using p-nitrophenyl-alpha-D-glucopyranoside as substrate preincubated with enzyme for 5 mins followed by substrate addition and measured after 30 mins by microplate reader analysis
Metric name: IC50

N#C/C(=C\c1c(Cl)cccc1Cl)C(=O)c1c[nH]c2ccccc12    Not Active
COc1ccc(/C=C(\C#N)C(=O)c2c[nH]c3ccccc23)c(F)c1    Not Active
N#C/C(=C\c1cccnc1)C(=O)c1c[nH]c2ccccc12    Not Active
Cc1ccccc1/C=C(\C#N)C(=O)c1c[nH]c2ccccc12    Not Active
